Taken from ChEMBL document CHEMBL1137765.

# system: Aminopeptidase N (Sus scrofa, UniProt P15145)
readout.name: IC50 (µM)

[a] N[C@@H](C(=O)NCCc1ccc2c(c1)OCO2)[C@@H](O)c1ccc([N+](=O)[O-])cc1
[b] N[C@@H](C(=O)O)[C@@H](O)c1ccc([N+](=O)[O-])cc1
[c] N[C@@H](C(=O)N[C@@H](Cc1ccccc1)C(=O)O)[C@@H](O)c1ccc([N+](=O)[O-])cc1
[d] N[C@@H](C(=O)NCc1ccc(F)cc1)[C@@H](O)c1ccc([N+](=O)[O-])cc1
[e] N[C@@H](C(=O)NCCCCCC(=O)O)[C@@H](O)c1ccc([N+](=O)[O-])cc1
Q) Please give the order of these compounds when sorted by IC50, largest value leading. Enter labels, ranked according to the request.
A) e, d, b, a, c
(e: 1390 µM, d: 302 µM, b: 140 µM, a: 90.3 µM, c: 60.4 µM)

---

# Test system: HL-60
# assay.comment: cells
# assay.setup: Homo sapiens, HL-60, 48 h
# Description: Antiproliferative activity against human HL60 cells after 48 hrs by MTT assay
readout.name: IC50 (µM)

[[record]]
compound_structure_string = "N[C@@H](C(=O)N[C@@H](Cc1ccccc1)C(=O)N[C@@H](Cc1ccccc1)C(=O)O)[C@@H](O)c1ccc([N+](=O)[O-])cc1"
readout_name = "IC50"
measured = 2210

[[record]]
compound_structure_string = "CC(C)C[C@H](NC(=O)[C@H](N)[C@@H](O)c1ccc([N+](=O)[O-])cc1)C(=O)N[C@@H](Cc1ccccc1)C(=O)O"
readout_name = "IC50"
measured = 2020

[[record]]
compound_structure_string = "CC(C)C[C@H](NC(=O)[C@@H](O)[C@H](N)Cc1ccccc1)C(=O)O"
readout_name = "IC50"
measured = 1650


---

# system: Aminopeptidase N (Sus scrofa)
# Sequence (P15145 whole entry): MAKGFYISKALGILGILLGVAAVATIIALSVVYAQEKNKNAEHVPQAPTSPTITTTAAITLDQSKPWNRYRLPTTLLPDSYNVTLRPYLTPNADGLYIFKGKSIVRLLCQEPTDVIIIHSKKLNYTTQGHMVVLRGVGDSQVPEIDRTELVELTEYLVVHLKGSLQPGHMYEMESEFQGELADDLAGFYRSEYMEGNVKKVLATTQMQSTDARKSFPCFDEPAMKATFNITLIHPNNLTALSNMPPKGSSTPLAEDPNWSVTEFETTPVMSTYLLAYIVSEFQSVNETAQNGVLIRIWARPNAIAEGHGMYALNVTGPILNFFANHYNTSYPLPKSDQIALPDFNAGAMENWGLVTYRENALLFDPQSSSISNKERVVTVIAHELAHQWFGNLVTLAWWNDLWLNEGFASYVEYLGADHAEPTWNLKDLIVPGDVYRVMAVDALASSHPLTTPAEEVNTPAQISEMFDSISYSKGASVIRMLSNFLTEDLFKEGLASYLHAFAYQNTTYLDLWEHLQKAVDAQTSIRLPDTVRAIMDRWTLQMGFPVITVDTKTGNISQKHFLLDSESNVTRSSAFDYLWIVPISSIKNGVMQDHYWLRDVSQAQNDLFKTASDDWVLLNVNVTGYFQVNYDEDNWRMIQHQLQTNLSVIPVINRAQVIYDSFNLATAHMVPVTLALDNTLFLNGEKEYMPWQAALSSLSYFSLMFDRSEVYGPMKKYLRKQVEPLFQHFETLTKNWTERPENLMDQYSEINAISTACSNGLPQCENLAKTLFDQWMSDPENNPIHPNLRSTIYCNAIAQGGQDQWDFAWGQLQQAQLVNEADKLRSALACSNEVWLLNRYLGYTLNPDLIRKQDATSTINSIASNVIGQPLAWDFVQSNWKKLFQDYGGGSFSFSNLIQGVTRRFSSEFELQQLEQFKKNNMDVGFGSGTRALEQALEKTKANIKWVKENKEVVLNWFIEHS
pIC50: −log10 of the molar value.
readout.name: pIC50

[[record]]
compound_structure_string = "N[C@@H](C(=O)NCc1ccccc1)[C@@H](O)c1ccc([N+](=O)[O-])cc1"
system = "Aminopeptidase N (Sus scrofa)"
readout_name = "pIC50"
measured = 3.77


[A] CC(C)C[C@H](NC(=O)[C@H](N)[C@@H](O)c1ccc([N+](=O)[O-])cc1)C(=O)O
[B] CCCCNC(=O)[C@H](N)[C@@H](O)c1ccc([N+](=O)[O-])cc1
Q) Pick one: A or B . Which has the bigger pIC50 number? Identify your pick by its label.
A) A
(A: 4.07, B: 3.63)
